target or system: Programmed cell death protein 1/Programmed cell death 1 ligand 1 (Homo sapiens) (UniProt Q15116+Q9NZQ7)
particulars: HEK293T, dose 100.0 nM, time 30.0 min
Threshold rule: inhibition greater than or equal to 20% is true; below that, false.

Previously resolved entries follow.
N#Cc1cncc(COc2cc(OCc3cccc(-c4ccc5c(c4)OCCO5)c3C(F)F)ccc2CNCC(O)CO)c1 (centres undefined) : false
N#Cc1cncc(COc2cc(OCc3cccc(-c4ccc5c(c4)OCCO5)c3C(F)F)ccc2CN2CCC[C@H]2C(=O)O)c1 : true
N#Cc1cncc(COc2cc(OCc3cccc(-c4ccc5c(c4)OCCO5)c3CF)ccc2CNCCO)c1 : false
N#Cc1cncc(COc2cc(OCc3cccc(-c4ccccc4F)c3CF)ccc2CN2CCC[C@H]2C(=O)O)c1 : false

Can CC(=O)NCCNCc1ccc(OCc2cccc(-c3ccc4c(c3)OCCO4)c2C(F)F)cc1OCc1cncc(C#N)c1 be said to have inhibition at or above 20%?
false

Would you kindly repeat that for COc1nc(OCc2cccc(-c3ccccc3)c2C)ccc1CNCCNC(C)=O ?
true

Record: N#Cc1cncc(COc2cc(OCc3cccc(-c4ccc5c(c4)OCCO5)c3CF)ccc2CN[C@@H](CO)C(=O)O)c1
true

Then what about the molecule N#Cc1cncc(COc2cc(OCc3cccc(-c4ccc5c(c4)OCCO5)c3CF)ccc2CN2CCC(C(=O)O)C2)c1 (centres undefined) ?
false
